Entries and their measured Inhibition of binding (%) follow.
# experimental_system: T1, human TSH receptor (full length), coated on tubes (human, UniProt P16473 22-764)
# T1 construct: TSHR coated tubes as described in WO2004/050708A2; Exact preparation on the tubes is not detailed here; also called thyroid stimulating hormone receptor
# assay_notes: competition with 125I-K1-18 IgG on TSHR coated tubes; 0.001 µg/mL, diluted in assay buffer
The reply should be a number in %, with the unit left off.

# binder, number
records = [
    ("K1-70 Fab (Fab, V domains shown) VH: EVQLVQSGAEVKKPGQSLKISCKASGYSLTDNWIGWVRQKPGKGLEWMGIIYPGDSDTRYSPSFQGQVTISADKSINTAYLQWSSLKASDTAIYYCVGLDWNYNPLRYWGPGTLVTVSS VL: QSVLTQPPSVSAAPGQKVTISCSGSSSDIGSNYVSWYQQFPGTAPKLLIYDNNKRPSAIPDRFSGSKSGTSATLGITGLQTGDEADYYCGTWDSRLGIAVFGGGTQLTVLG", -3.9),
]

Look at this binder and give its reported Inhibition of binding (%). K1-18 Fab (Fab, V domains shown) VH: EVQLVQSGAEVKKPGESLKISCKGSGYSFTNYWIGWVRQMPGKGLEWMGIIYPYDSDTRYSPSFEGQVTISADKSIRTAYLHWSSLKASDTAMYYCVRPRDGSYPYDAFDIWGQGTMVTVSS VL: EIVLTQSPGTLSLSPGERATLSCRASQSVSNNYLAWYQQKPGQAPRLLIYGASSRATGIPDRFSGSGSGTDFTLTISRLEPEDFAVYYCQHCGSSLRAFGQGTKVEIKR
-2.6

Another binder to look at: K1-70 IgG (antibody, V domains shown) VH: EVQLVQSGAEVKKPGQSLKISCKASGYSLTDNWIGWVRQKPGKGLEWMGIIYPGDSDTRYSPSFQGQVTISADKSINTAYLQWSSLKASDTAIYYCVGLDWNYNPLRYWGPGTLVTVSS VL: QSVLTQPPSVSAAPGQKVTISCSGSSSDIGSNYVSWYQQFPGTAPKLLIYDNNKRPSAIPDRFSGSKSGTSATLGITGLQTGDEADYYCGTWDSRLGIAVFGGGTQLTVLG
-1.7

Another binder to look at: K1-18 IgG (antibody, V domains shown) VH: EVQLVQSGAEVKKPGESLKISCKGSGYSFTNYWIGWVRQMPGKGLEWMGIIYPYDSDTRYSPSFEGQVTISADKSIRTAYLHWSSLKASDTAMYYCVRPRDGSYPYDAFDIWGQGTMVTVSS VL: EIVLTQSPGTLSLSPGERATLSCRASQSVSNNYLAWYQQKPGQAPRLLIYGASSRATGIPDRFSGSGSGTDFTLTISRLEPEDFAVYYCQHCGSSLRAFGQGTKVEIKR
6.9
